# measurement target: HLA-A*02:06
# protocol text: IEDB peptide-MHC binding, purified MHC/competitive/radioactivity; filed as Kd, often an IC50 or EC50 that approximates it; bounds were set here for any values at or beyond the usual limits of such assays
# test context: source organism: Dengue virus 4 Philippines/H241/1956
observable: Kd (µM)
Answers are plain numbers, in µM.

- sequence: "FSMGLLCLTL"
  Kd [µM]: 0.00849

With those in mind, consider the next sequence.
input: What does the data say about its Kd? Entry: MVAGGLLLAA
output: 0.0192

* * *

# measurement target: HLA-A*02:01
# protocol text: IEDB peptide-MHC binding, purified MHC/competitive/radioactivity; filed as Kd, often an IC50 or EC50 that approximates it; bounds were set here for any values at or beyond the usual limits of such assays
# test context: source organism: Dengue virus 3 China/80-2/1980
observable: pKd
Give bare numbers, as −log10 of the molar value.

- sequence: "QLANAIFKL"
  pKd: 8.39

Now consider the entry below.
input: Form field: reported pKd of VLLLVTHYA
output: 8.16

* * *

# measurement target: HLA-A*31:01
# protocol text: IEDB peptide-MHC binding, purified MHC/direct/fluorescence; filed as Kd, often an IC50 or EC50 that approximates it; bounds were set here for any values at or beyond the usual limits of such assays
# test context: source organism: Influenza A virus (A/swine/Bakum/5/95(H1N1))
observable: Kd

input: So what does the record say about Kd for RGINDRNFW ?
output: ≥ 20 µM

* * *

# measurement target: HLA-B*44:02
# protocol text: IEDB peptide-MHC binding, purified MHC/competitive/radioactivity; filed as Kd, often an IC50 or EC50 that approximates it; bounds were set here for any values at or beyond the usual limits of such assays
# test context: source organism: Dengue virus 1 Nauru/West Pac/1974
observable: pKd
Answers are plain numbers, as −log10 of the molar value.

input: Which pKd value belongs to AEPPFGESYI ?
output: 6.22

* * *

# measurement target: HLA-A*02:06
# protocol text: IEDB peptide-MHC binding, purified MHC/competitive/radioactivity; filed as Kd, often an IC50 or EC50 that approximates it; bounds were set here for any values at or beyond the usual limits of such assays
# test context: source organism: Vaccinia virus WR
Task for the reader: assign each of the following sequences its reported pKd.
Numbers only, as −log10 of the molar value.

// known answers, use as guide
- sequence: "QIFNIISYI"
  pKd: 8.75
- sequence: "CTMERTNDLT"
  pKd: 6.00
- sequence: "NASKFVYVSV"
  pKd: 6.08

Give pKd for each listed item.
1. EALYYVHSL
2. RIVVALSSLV
3. NTYLFNILY
4. VISVIFYFI
5. LLTHGADPNA
6. ITPTIEDDKI
7. NLILNFLDWI

output:
[4.83, 8.02, 5.21, 6.30, 4.80, 5.82, 6.35]

* * *

# measurement target: HLA-A*68:02
# protocol text: IEDB peptide-MHC binding, purified MHC/competitive/radioactivity; filed as Kd, often an IC50 or EC50 that approximates it; bounds were set here for any values at or beyond the usual limits of such assays
# test context: source organism: Dengue virus 2 Jamaica/1409/1983
observable: pKd
Give bare numbers, as −log10 of the molar value.

input: Query the reported pKd for HLA-A*68:02; item: VVIAILTVV
output: 6.46
